B1: VH:VL chains; a variant is named by its letters at X, in order (parent)
chain 1: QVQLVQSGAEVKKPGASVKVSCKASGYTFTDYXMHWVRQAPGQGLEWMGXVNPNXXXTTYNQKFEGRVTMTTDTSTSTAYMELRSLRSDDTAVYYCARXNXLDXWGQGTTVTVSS
chain 2: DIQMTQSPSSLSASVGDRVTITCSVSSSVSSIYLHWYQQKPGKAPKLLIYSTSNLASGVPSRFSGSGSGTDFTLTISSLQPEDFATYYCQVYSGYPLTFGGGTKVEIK

variants of: B1; assay: yeast display scFab, FACS + sequencing
MEASURE: non-specific binding call

In the examples that follow, each entry is paired with its recorded non-specific binding call.
VRGRGFVV ... binds
VTAGDDGS ... no binding
YKGEADGA ... no binding
YTRGAALA ... no binding
FGRGSSWA ... no binding
FRRRGSGD ... binds

Answer for every listed entry: what is its non-specific binding call? The entries follow.
1. SRGGGALD
2. VKAGSAAA
3. FRGKGFGV

## Result
["no binding", "no binding", "binds"]

Answer for every listed entry: what is its non-specific binding call? The entries follow.
1. YKAGGALA
2. ARRGSDVA
3. YRGRGAWF
4. ARGGDDGA
5. VGEKGDGV
6. DTAESSSF
7. FKARDSGD
8. VEGGGDVY

## Result
1. binds
2. no binding
3. binds
4. no binding
5. no binding
6. no binding
7. binds
8. no binding

Answer for every listed entry: what is its non-specific binding call? The entries follow.
1. YARTGFGA
2. VAGAGDVV
3. YKTRSSAD
4. DKGGGDVA
5. FERTSVWF chain 1 L45F

## Result
["binds", "no binding", "binds", "no binding", "binds"]
